System: Caco-2 (human epithelial colorectal adenocarcinoma) cells
Experiment: Cytotoxicity assay
Details: Homo sapiens, Caco-2, 24 h, read-out: IC50 Caco-2
endpoint name: pIC50
In plain terms, pIC50 is the concentration in mol/L turned into minus its base-10 logarithm.

## Input Give its pIC50 value. Item: COc1cc([C@@H]2c3cc4c(cc3[C@@H](O[C@@H]3O[C@@H]5CO[C@@H](C)O[C@H]5[C@H](O)[C@H]3O)[C@H]3COC(=O)[C@H]23)OCO4)cc(OC)c1O [Etoposide, reference compound]
## Output 4.64

* * *

Test system: HCT-116 (human colon carcinoma) cells
Test: Cytotoxicity assay
Type: cell-based
Details: Homo sapiens, HCT-116, 72 h, read-out: IC50 HCT-116
endpoint name: IC50 (µM)
Output spec: scalar in µM, unitless text.

## Input Data request, read-out IC50, for COc1cc([C@@H]2c3cc4c(cc3[C@@H](O[C@@H]3O[C@@H]5CO[C@@H](C)O[C@H]5[C@H](O)[C@H]3O)[C@H]3COC(=O)[C@H]23)OCO4)cc(OC)c1O [Etoposide, reference compound]
## Output 14.3
